measuredAttribute: melting point (°C)

- compound: "NC(=O)C12CC3CC(C1)C(NC(=O)N1CCN(c4ccc(N5CCN(S(=O)(=O)C6CCNCC6)CC5)cc4)c4ccccc41)C(C3)C2 (stereo not drawn)"
  dataValue: 230
- compound: "CS(=O)(=O)N1CCC(O)(c2ccc(N3CCN(C(=O)N[C@H]4C5CC6CC4C[C@@](O)(C6)C5)c4ccccc43)cc2)CC1"
  dataValue: 160
- compound: "O=C(NC1C2CC3CC1CC(O)(C3)C2)N1CCN(c2ccc(Oc3nccc(C(F)(F)F)n3)cc2)c2ccccc21 (stereo not drawn)"
  dataValue: 197

* * *

measuredAttribute: melting point (°C)

Consider the following illustrative entries.
- compound: "N#C[C@]12CC3CC(C1)[C@H](NC(=O)N1CCN(c4ccc(N5CCN(S(=O)(=O)C6CC6)CC5)cn4)c4ccccc41)C(C3)C2"
  resultUnits: "°C"
  melting point: 188
- compound: "CCS(=O)(=O)N1CCN(c2ccc(N3CCN(C(=O)N[C@H]4C5CC6CC4C[C@@](C(N)=O)(C6)C5)c4ccccc43)nc2)CC1"
  resultUnits: "°C"
  melting point: 175
- compound: "CC(C)(C)N1CCN(c2ccc(N3CCN(C(=O)NC4C5CC6CC4CC(C(N)=O)(C6)C5)c4ccccc43)cc2)CC1 (stereo not drawn)"
  resultUnits: "°C"
  melting point: 228

1 = CS(=O)(=O)N1CCN(c2ccc(N3CCN(C(=O)N[C@H]4C5CC6CC4C[C@@](CO)(C6)C5)c4ccccc43)cc2)CC1
2 = O=C(NC1C2CC3CC1CC(O)(C3)C2)N1CCN(c2ccc(N3CCC(F)(F)CC3)cc2)c2ccccc21 (stereo not drawn)
Ask | Rank 1 against 2 by their melting point values and give the higher one. Record your answer as the label of the chosen record.
Reply | 1
(1: 160 °C, 2: 95 °C)

* * *

Biological target: recombinant 11βHSD1 protein (Homo sapiens, UniProt P28845)
Sequence (P28845 whole entry, species assumed): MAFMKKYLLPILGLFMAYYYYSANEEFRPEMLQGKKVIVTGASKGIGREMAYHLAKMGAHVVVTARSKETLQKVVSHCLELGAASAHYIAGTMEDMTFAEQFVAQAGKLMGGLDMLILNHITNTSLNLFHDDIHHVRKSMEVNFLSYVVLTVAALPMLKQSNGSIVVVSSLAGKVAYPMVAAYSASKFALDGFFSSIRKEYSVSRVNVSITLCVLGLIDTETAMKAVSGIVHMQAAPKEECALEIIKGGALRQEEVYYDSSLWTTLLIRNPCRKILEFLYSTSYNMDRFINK
Assay: SPA (Scintillation Proximity Assay) test of in vitro inhibition of the enzyme 11βHSD1, 384-well format
Details: 3H-cortisone and NADPH, SPA beads, cortisol formed; read-out: IC50 (concentration which inhibits 50% of the activity of 11βHSD1)
pIC50: −log10 of the molar value.
measuredAttribute: pIC50

Solved cases (10 shown):
- compound: "CC(C)Oc1ccc(-c2ccc(N3CCN(C(=O)NC4C5CC6CC4CC(C(N)=O)(C6)C5)c4ccccc43)cc2)nc1 (stereo not shown) [compound 85]"
  target: "recombinant 11βHSD1 protein (Homo sapiens, UniProt P28845)"
  pIC50: 8.15
- compound: "CC(C)(C)N1CCN(c2ccc(N3CCN(C(=O)NC4C5CC6CC4CC(C(N)=O)(C6)C5)c4ccccc43)nc2)CC1 (stereo not shown) [compound 128]"
  target: "recombinant 11βHSD1 protein (Homo sapiens, UniProt P28845)"
  pIC50: 8.40
- compound: "O=C(NC1C2CC3CC1CC(O)(C3)C2)N1CCN(c2ccc(N3CCN(C4CC4)CC3)cn2)c2ccccc21 (stereo not shown) [compound 118]"
  target: "recombinant 11βHSD1 protein (Homo sapiens, UniProt P28845)"
  pIC50: 8.10
- compound: "O=C(NC1C2CC3CC1CC(O)(C3)C2)N1CCN(c2ccc(N3CCC(F)(F)CC3)cc2)c2ccccc21 (stereo not shown) [compound 30]"
  target: "recombinant 11βHSD1 protein (Homo sapiens, UniProt P28845)"
  pIC50: 7.03
- compound: "CS(=O)(=O)N1CCC2(CCN(c3ccc(N4CCN(C(=O)NC5C6CC7CC5CC(O)(C7)C6)c5ccccc54)cc3)C2)C1 (stereo not shown) [compound 132]"
  target: "recombinant 11βHSD1 protein (Homo sapiens, UniProt P28845)"
  pIC50: 6.73
- compound: "NC(=O)C12CC3CC(C1)C(NC(=O)N1CCN(c4ccc(N5CCN(S(=O)(=O)C6CCNCC6)CC5)cc4)c4ccccc41)C(C3)C2 (stereo not shown) [compound 95]"
  target: "recombinant 11βHSD1 protein (Homo sapiens, UniProt P28845)"
  pIC50: 8.10
- compound: "CC(=O)N[C@]12CC3CC(C1)[C@H](NC(=O)N1CCN(c4ccc(N5CCN(S(C)(=O)=O)CC5)cc4)c4ccccc41)C(C3)C2 [Compound No. 137]"
  target: "recombinant 11βHSD1 protein (Homo sapiens, UniProt P28845)"
  pIC50: 6.89
- compound: "O=C(c1ccc(-c2csc(N3CCN(C(=O)NC4C5CC6CC(C5)CC4C6)c4ccccc43)n2)cc1)N1CCOCC1 (stereo not shown) [compound 6]"
  target: "recombinant 11βHSD1 protein (Homo sapiens, UniProt P28845)"
  pIC50: 6.20
- compound: "O=C(NC1C2CC3CC1CC(O)(C3)C2)N1CCN(c2ccc(Oc3nccc(C(F)(F)F)n3)cc2)c2ccccc21 (stereo not shown) [compound 14]"
  target: "recombinant 11βHSD1 protein (Homo sapiens, UniProt P28845)"
  pIC50: 7.55
- compound: "CC(C)N1CCN(C(=O)c2ccc(-c3ccc(N4CCN(C(=O)NC5C6CC7CC5CC(O)(C7)C6)c5ccccc54)cc3)nc2)CC1 (stereo not shown) [compound 27]"
  target: "recombinant 11βHSD1 protein (Homo sapiens, UniProt P28845)"
  pIC50: 7.77

P = CC(C)(C)N1CCN(c2ccc(N3CCN(C(=O)NC4C5CC6CC4CC(C(N)=O)(C6)C5)c4ccccc43)cc2)CC1 (stereo not shown) [compound 96]
Q = CS(=O)(=O)N1CC=C(c2ccc(N3CCN(C(=O)NC4C5CC6CC4CC(O)(C6)C5)c4ccccc43)cc2)CC1 (stereo not shown) [compound 15]
Ask | For the pair P and Q , which entry has the numerically smaller recorded pIC50? Field: selected label. Fill in the label of the entry you choose.
Reply | Q

A = COCCOCCS(=O)(=O)N1CCN(c2ccc(N3CCN(C(=O)NC4C5CC6CC4CC(C(N)=O)(C6)C5)c4ccccc43)cc2)CC1 (stereo not shown) [compound 125]
B = CS(=O)(=O)N1CCC(O)(c2ccc(N3CCN(C(=O)N[C@H]4C5CC6CC4C[C@@](O)(C6)C5)c4ccccc43)cc2)CC1 [Compound No. 16]
C = O=C(NC1C2CC3CC(C2)CC1C3)N1CCN(c2ccc(OCc3ncccn3)cc2)c2ccccc21 (stereo not shown) [Compound No. 3]
Ask | Please list the entries, largest pIC50 first. Submit the labels in the order that the ranking request calls for.
Reply | A, B, C
